Cited source: patent EP4585616A1

system_name: T1, ROR1 extracellular segment with Frizzled domain removed on CHO cells (human, UniProt Q01973 30-472, limits assumed)
T1 construct: Transfected into CHO cells; also called CHO-ROR1 (with Frizzled domain removed)
experimental_details: FACS, CHO-ROR1 (with Frizzled domain removed) cells
outcome_measure: pEC50
Numbers only, as −log10 of the molar value.

INSERT INTO measurements (binder, val) VALUES
  ('mAb001c (antibody, V domains shown, Human-mouse chimeric; also called human-mouse chimeric antibody mAb001c) VH: EVRLQQSGPVLVKPGASVKMSCKASGYTFTDYNLHWVKQSHRQSLEWIGYINPNHDGTSYNQKFQGKATLTVDRSSSTAYMEFRSLTSEDSAVYYCARRVRTGTGLDDWGQGTTLTVSS VL: DVLMTQSPLSLPVSLGDQASISCRSSHNIVHTNGNTYLEWYLQKPGQSPKLLIYKVSNRFSGVPDRFSGSGSGTYFTLTISRVEAEDLGVYYCFQGSRFPYTFGGGTKLEIK', 9.07),
  ('mAb004c (antibody, V domains shown, Human-mouse chimeric) VH: EVQLVESGGGLVQPKGSLKLSCAASGFTFNTYAMHWVRQAPGKGLEWVARIRSKSSNFATYYADSVRDRFTISRDDSQSMLYLQMNNLKTEDTAMYYCVRGYGPSYFSLDYWGQGTSVTVSS VL: DVVMTQTPLSLPVSLGDQASISCRSSQSLVHSNGNTYLHWYLQKPGQSPKLLIYKVSNRFSGVPDRFSGSGSGTDFTLKINRVEAEDLGVYFCSQSTHAIYTFGGGTKLEIK', 8.86);

// for each binder in input: emit pEC50
1. mAb009c (antibody, V domains shown, Human-mouse chimeric) VH: EVQLQQSGPELVKPGASLKLSCKASGYTFPDYNIHWVKQSHGKSLEWIGYINPNNGNTNYNQKFEGKATLTVSKSSSTAYMELRSLTSDDSAVYSCARRGYGSSYAMDFWGQGTSVTVSS VL: DVLMTQTPLSLPVSLGNQASISCRSSHIIVHTNGNTYLEWYLQKPGQSPKLLIYKVSNRFSGVPDRFSGSGSGTDFTLKISRVEAEDLGVYYCFQGSRVPYTFGGGTKLEIK
2. mAb008c (antibody, V domains shown, Human-mouse chimeric) VH: EVQLQQSGPELVKPGASVKMSCKASEYTFTDYNMHWVKQSHGKSLEWIGYINPNNGGTTYNQKFKGKATLTVNKSSSTAYMELRSLTSDDSAVYYCARRGYGSGYAMDYWGQGASVTVSS VL: DVLLTQTPLSLPVSLGDRASISCTSSQSIVHTNGNTYLEWYLQNPGQSPKLLIYKVSNRFSGVPDRFSGSGSGTDFTLKISRVEAEDLGVYYCFQGSLFPYTFGGGTKLEIK
3. mAb005c (antibody, V domains shown, Human-mouse chimeric) VH: EVQLVESGGGLVKPGGSLKLSCAASGFTFNSYAMSWVRQTPEKRLEWVATISDGGSYTYYPDNEKGRFTISRDNAKNNLYLQMSHLKSEDTAIYYCVRGGYYYNLYAMDYWGQGTSVTVSS VL: DIVLTQSPASLAVSLGQRAIISCKASQSVSFPGTSLMHWYQQKPGQQPKLLIYRASNLEAGVPTRFSGSGSRTDFTLNIHPVEEDDTATYYCQQSREYPWTFGGGTQLEIK

stdout:
1. 8.77
2. 8.78
3. 8.99
